For each record, write down the corresponding AUC.
SYSTEM: T1, human PVRIG-his (AcroBiosystems, Cat NO. PVG-H52H4) (human, UniProt Q6DKI7 41-171, limits assumed)
T1 construct: also called human PVRIG protein
T1 sequence (looked up): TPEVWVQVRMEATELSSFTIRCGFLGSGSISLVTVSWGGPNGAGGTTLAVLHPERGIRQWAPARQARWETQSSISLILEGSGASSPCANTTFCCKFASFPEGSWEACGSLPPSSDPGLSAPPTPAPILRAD
ASSAY: competition ELISA, PVRIG-His coated, competitor human PVRL2-mFc
Parameters: unit not given here
Simply state the number, no unit and no words.

Please give measured AUC of the following entry: PVRIG-A50-H1e (Fc fusion, humanized variant of PVRIG-A50; also called VH1e; not shown: constant part not restated for the humanized forms; parents are VHH-hinge-CH2-CH3 of human IgG1; detected by anti-human) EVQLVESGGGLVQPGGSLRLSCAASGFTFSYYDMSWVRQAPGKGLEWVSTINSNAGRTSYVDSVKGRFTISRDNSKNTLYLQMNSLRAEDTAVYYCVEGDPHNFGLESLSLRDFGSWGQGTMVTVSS
2.32

Please give measured AUC of the following entry: PVRIG-A50-H2a (Fc fusion, humanized variant of PVRIG-A50; also called A50.VH2a; not shown: constant part not restated for the humanized forms; parents are VHH-hinge-CH2-CH3 of human IgG1; detected by anti-human) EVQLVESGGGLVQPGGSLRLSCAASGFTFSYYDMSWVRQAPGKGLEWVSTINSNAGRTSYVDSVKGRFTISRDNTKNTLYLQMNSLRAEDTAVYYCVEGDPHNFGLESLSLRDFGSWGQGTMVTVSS
2.32

Please give measured AUC of the following entry: PVRIG-A118-H7 (Fc fusion, humanized variant of PVRIG-A118; also called A118.VH7; not shown: constant part not restated for the humanized forms; parents are VHH-hinge-CH2-CH3 of human IgG1; detected by anti-human) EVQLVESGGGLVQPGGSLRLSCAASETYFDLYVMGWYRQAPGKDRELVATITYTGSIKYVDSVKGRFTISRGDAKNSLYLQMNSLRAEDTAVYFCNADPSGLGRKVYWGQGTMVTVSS
1.38

Please give measured AUC of the following entry: PVRIG-A50-H1a (Fc fusion, humanized variant of PVRIG-A50; also called A50.VH1a; not shown: constant part not restated for the humanized forms; parents are VHH-hinge-CH2-CH3 of human IgG1; detected by anti-human) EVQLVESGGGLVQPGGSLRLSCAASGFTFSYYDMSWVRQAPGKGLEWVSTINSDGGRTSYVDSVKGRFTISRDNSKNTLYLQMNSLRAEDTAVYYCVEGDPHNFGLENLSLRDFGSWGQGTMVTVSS
2.43
